System: Trichophyton interdigitale CCM 8377 (ATCC 9533)
Assay: Antifungal microdilution broth method, TI
Type: cell-based
Settings: 48 h, read-out: MIC TI
Metric: MIC

Examples with answers:
[
  {
    "Compound": "CCOC(=O)[C@H](C)NC(=O)c1cnccn1 [PC-L-Ala-Et, ethyl (pyrazine-2-carbonyl)-L-alaninate]",
    "MIC": "500 µM"
  },
  {
    "Compound": "COC(=O)CC[C@@H](NC(=O)c1cnccn1)C(=O)OC [PC-D-Glu-diMe]",
    "MIC": "> 500 µM"
  },
  {
    "Compound": "COC(=O)[C@H](NC(=O)c1cnccn1)[C@H](C)O [PC-D-Thr-Me]",
    "MIC": "> 500 µM"
  }
]

Here's the next entry for you.
Give me measured MIC, please, for this compound: COC(=O)[C@@H](Cc1ccc(O)cc1)NC(=O)c1cnccn1 [PC-D-Tyr-Me]
> 500 µM

====

System: Mtb H37Ra ITM-M006710 (ATCC 9431)
Assay: Microplate Alamar Blue Assay (MABA) microdilution, Mtb H37Ra
Assay type: cell-based, Mycobacterium tuberculosis
Details: Mycobacterium tuberculosis, pH 6; read-out: MIC Mtb H37Ra
Metric: MIC

Examples with answers:
[
  {
    "Molecule": "COC(=O)[C@@H](NC(=O)c1cnccn1)[C@@H](C)O [PC-L-Thr-Me]",
    "MIC": "≥ 500 µg/mL"
  },
  {
    "Molecule": "COC(=O)[C@H](C)NC(=O)c1cnccn1 (racemic) [PC-DL-Ala-Me, methyl (pyrazine-2-carbonyl)alaninate]",
    "MIC": "≥ 125 µg/mL"
  },
  {
    "Molecule": "COC(=O)[C@H](NC(=O)c1cnccn1)C(C)C [PC-D-Val-Me, methyl (pyrazine-2-carbonyl)-D-valinate]",
    "MIC": "≥ 125 µg/mL"
  },
  {
    "Molecule": "CCOC(=O)CNC(=O)c1cnccn1 [PC-Gly-Et, ethyl (pyrazine-2-carbonyl)glycinate]",
    "MIC": "≥ 125 µg/mL"
  },
  {
    "Molecule": "O=C(N[C@@H](COCc1ccccc1)C(=O)O)c1cnccn1 [PC-L-OBn-Ser]",
    "MIC": "≥ 500 µg/mL"
  }
]

Give me measured MIC, please, for this molecule: COC(=O)[C@H](NC(=O)c1cnccn1)[C@H](C)O [PC-D-Thr-Me]
≥ 500 µg/mL

Give me measured MIC, please, for this molecule: COC(=O)CC[C@@H](NC(=O)c1cnccn1)C(=O)OC [PC-D-Glu-diMe]
≥ 500 µg/mL

Give me measured MIC, please, for this molecule: COC(=O)[C@@H](COC(C)(C)C)NC(=O)c1cnccn1 [PC-D-OtBu-Ser-Me]
≥ 500 µg/mL
